Recorded values, source paper PMC6009919.

Recorded IC50, one value per entry.
Tested on: MDA-MB-231 (breast adenocarcinoma)
Test: Cell viability (MTT assay), MDA-MB-231
Format: cell-based
Experimental Parameters: MTT, 48-h incubation, triplicate; read-out: Cytotoxicity IC50 (μM) ± SD, MDA-MB-231
Method: Cancer cell lines such as MDA-MB-231 (breast adenocarcinoma), DU145 (prostate carcinoma) and U87 MG (glioblastoma astrocytoma) were purchased from National Centre for Cell Sciences (NCCS) (Pune, India). Cytotoxic activity of compounds (>80% hIMPDH2 inhibition at 10 μM) was evaluated using colorimetric MTT assay on the above-mentioned cell lines. […] The absorbance was then measured at 540 nm and 630 nm (background scan) using EPOCH 2 BioTek microplate reader. […]
Number in µM, nothing else.

given_smiles=COc1c(C)c2c(c(O)c1C/C=C(\C)CCC(=O)NCc1ccc3c(c1)OCO3)C(=O)OC2 meas_value=1.86

Now look at this entry.
Ask | Value lookup for IC50; key = COc1c(C)c2c(c(O)c1C/C=C(\C)CCC(=O)NCc1ccc(Cl)cc1)C(=O)OC2
Reply | 4.1

====

# maps each entry to its IC50
Test system: U87 MG (glioblastoma astrocytoma)
Test: Cell viability (MTT assay), U87 MG
Type: cell-based
Experimental Parameters: MTT, 48-h incubation, triplicate; read-out: Cytotoxicity IC50 (μM) ± SD, U87 MG
Could you give me the number in µM? Just the number is fine.

Ask | // returns reported IC50 for input COc1c(C)c2c(c(O)c1C/C=C(\C)CCC(=O)NCc1ccc(Cl)cc1)C(=O)OC2
Reply | 7.31

Ask | Could you share which IC50 value was measured for COc1c(C)c2c(c(O)c1C/C=C(\C)CCC(=O)NCc1ccc3c(c1)OCO3)C(=O)OC2 ?
Reply | 8.16

====

inhibition at 10 µM for assorted compounds
Target Entity: hIMPDH2 (Homo sapiens, UniProt P12268)
Construct: purchased NovoCIB SAS (Lyon, France)
Test: In vitro hIMPDH2 inhibition assay
Type: biochemical
Experimental Parameters: at 10 µM; ± SD; read-out: hIMPDH2 enzyme % Inhibition
Your answer should be a plain number; it is taken to be in %.

compound=COc1c(C)c2c(c(O)c1C/C=C(\C)CCC(=O)NCc1ccc(C)cc1)C(=O)OC2 measurement_type="inhibition at 10 µM" meas_value=73.4
compound=COc1ccc(CNC(=O)CC/C(C)=C/Cc2c(O)c3c(c(C)c2OC)COC3=O)cc1 measurement_type="inhibition at 10 µM" meas_value=96.1
compound=COc1c(C)c2c(c(O)c1C/C=C(\C)CCC(=O)N[C@@H](C)c1ccccc1)C(=O)OC2 measurement_type="inhibition at 10 µM" meas_value=59.1
compound="COc1c(C)c2c(c(O)c1C/C=C(\\C)CCC(=O)O)C(=O)OC2 [Compound 1, Mycophenolic acid, reference compound]" measurement_type="inhibition at 10 µM" meas_value=99.9

Ask | API: value(readout= inhibition at 10 µM, system= hIMPDH2 (Homo sapiens, UniProt P12268), query= COc1cccc(NC(=O)CC/C(C)=C/Cc2c(O)c3c(c(C)c2OC)COC3=O)c1 )
Reply | 30.8

Ask | Recorded inhibition at 10 µM for COc1c(C)c2c(c(O)c1C/C=C(\C)CCC(=O)NCc1ccccn1)C(=O)OC2 with hIMPDH2 (Homo sapiens, UniProt P12268), please?
Reply | 59.4

Ask | Give inhibition at 10 µM (hIMPDH2 (Homo sapiens, UniProt P12268)) of the following compound: COc1c(C)c2c(c(O)c1C/C=C(\C)CCC(=O)NCc1ccncc1)C(=O)OC2
Reply | 57.4

Ask | # get_value(readout= inhibition at 10 µM, system= hIMPDH2 (Homo sapiens, UniProt P12268)) for COc1c(C)c2c(c(O)c1C/C=C(\C)CCC(=O)NCc1ccccc1C)C(=O)OC2
Reply | 84

Ask | Short answer please: inhibition at 10 µM, hIMPDH2 (Homo sapiens, UniProt P12268), entry COc1c(C)c2c(c(O)c1C/C=C(\C)CCC(=O)NCCN1CCOCC1)C(=O)OC2
Reply | 36
